# Tested on: NCI-H460
# experimental-details: NCI tumour cell line growth inhibition, 48 h
Active and inactive are the calls of the source. Cut-off read from the data, not from the text of the source: active = GI50 up to about 1.1 µM and inactive = higher.
Outcome (select one): active, inactive

Before answering, review these 10 worked examples.
# compound, answer-label
records = [
    ("Cc1c(NC(=O)CSC(=S)N(C)C)c(=O)n(-c2ccccc2)n1C", "inactive"),
    ("COc1cc(OCCN(C)C)c2[nH]c(C(=O)N3CC(CCl)c4c3cc(N)c3ccccc43)cc2c1 (centres undefined)", "active"),
    ("COC(=O)/C=C/C1C(C(=O)OC)C2(C(=O)OC)CCC1(C(=O)OC)N2 (centres undefined)", "inactive"),
    ("CCCCCC(=O)OC[n+]1cccc(-c2c(COC(=O)NC(C)C)c(COC(=O)NC(C)C)c3n2CCC3)c1", "inactive"),
    ("COc1ccc2[nH]c(C(=O)N3CC(CCl)c4ccc(N)cc43)cc2c1 (centres undefined)", "active"),
    ("COc1cccc2c1C(=O)c1c(O)c3c(c(O)c1C2=O)C[C@@](O)(/C(C)=N/NC(=O)c1ccccc1)C[C@@H]3OC1CC(N)C(O)C(C)O1 (some centres undefined)", "active"),
    ("COc1ccc(Oc2cccc(/C=C3/C(=O)Nc4ccccc43)c2)cc1", "inactive"),
    ("CC(C)=Cc1cc(CCC/C(C)=C/Cc2c(O)cc(C)c(C(=O)O)c2O)co1", "inactive"),
    ("Clc1ccc(C2SCc3nc4ccccc4n32)cc1Cl (centres undefined)", "inactive"),
    ("COc1ccc(COC2CC(OC)OC(C)C2OC(=O)c2ccccc2)cc1 (centres undefined)", "inactive"),
]

In this assay, the call recorded for `O=C(c1ccccc1)n1cc(/C=C/[N+](=O)[O-])c2ccccc21` was what?
inactive

In this assay, the call recorded for `COC(=O)[C@H]1CO[C@H]2C/C(C)=C/CC/C(C)=C/CC[C@@]3(C)O[C@@H]3C[C@H]21` was what?
inactive
